The following sequences are listed with their measured phosphorylation enrichment values.
biological target: EPHB1 (UniProt P54762); assay: phosphorylation enrichment, bacterial display (enrichment ratio); higher = better substrate or ligand; peptides without Tyr show the background;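 further: 11-residue human phosphosite peptides and single-mutation variants displayed on the E. coli surface, counted by deep sequencing, each peptide's frequency after selection divided by its frequency in the unselected input library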;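 further: frequency after pTyr selection over input frequency; kinase dosed for 20-30% of maximal phosphorylation in three min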
Sequence (P54762 whole entry, looked up): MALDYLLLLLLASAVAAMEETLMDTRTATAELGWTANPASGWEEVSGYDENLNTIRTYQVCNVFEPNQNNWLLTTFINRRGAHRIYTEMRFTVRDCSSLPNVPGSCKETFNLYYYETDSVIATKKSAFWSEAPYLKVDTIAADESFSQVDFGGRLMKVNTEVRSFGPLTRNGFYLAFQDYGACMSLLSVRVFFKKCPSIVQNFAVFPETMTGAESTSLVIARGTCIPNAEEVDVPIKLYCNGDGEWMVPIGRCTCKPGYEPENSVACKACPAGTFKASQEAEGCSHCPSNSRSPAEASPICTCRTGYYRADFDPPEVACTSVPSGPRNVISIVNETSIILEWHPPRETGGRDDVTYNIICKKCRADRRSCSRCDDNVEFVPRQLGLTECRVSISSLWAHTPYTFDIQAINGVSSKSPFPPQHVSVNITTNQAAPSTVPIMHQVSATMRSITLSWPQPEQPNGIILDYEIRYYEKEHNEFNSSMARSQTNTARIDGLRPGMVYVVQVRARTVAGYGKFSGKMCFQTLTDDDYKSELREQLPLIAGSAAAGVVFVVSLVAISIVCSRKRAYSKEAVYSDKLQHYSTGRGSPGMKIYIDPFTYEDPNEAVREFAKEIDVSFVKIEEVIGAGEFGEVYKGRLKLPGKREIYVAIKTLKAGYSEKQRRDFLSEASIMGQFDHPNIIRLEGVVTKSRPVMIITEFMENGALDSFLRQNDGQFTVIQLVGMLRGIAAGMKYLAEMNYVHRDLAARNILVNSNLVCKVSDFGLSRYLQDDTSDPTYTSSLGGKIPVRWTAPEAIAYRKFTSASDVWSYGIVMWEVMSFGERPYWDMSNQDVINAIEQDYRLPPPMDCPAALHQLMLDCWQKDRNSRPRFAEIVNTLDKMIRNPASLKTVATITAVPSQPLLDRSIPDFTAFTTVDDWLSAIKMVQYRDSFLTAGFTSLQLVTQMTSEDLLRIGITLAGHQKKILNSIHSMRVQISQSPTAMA

Example entries begin here.
ALRHYYKLNII [ETV6_Y402]: 0.579
VRSTEYPCAGL: 0.554
GFPVHYTDMSN [DNMT3B_Y815_V818M]: 0.388
ETPSEYLEIVR [TMEM130_Y412]: 0.848
SLAARYYNWVS [FLT4_Y1230]: 0.756

Let's switch to this sequence now.
Input line: phosphorylation enrichment for QRIHNYYEHRY [HCN4_Y554_D553N] ?
Output line: 2.91

====

The following sequences are listed with their measured phosphorylation enrichment values.
test system: Fer (mouse); assay: phosphorylation enrichment, bacterial display (enrichment ratio); higher = better substrate or ligand; peptides without Tyr show the background
Lab note: jot the number down without any unit.

NREGVYTVFAP [TGFBI_Y537]: 8.74

Input line: phosphorylation enrichment for GFPVHYTDVSN [DNMT3B_Y815] ?
Output line: 0.708

Input line: Do the same for EFISEYCGEII [EZH2_Y641] please
Output line: 0.678

Input line: Do the same for PYVYYYSYLLK [PTEN_Y178_R173P] please
Output line: 1.1

Input line: Do the same for GLNKDYRMVVN [HINT1_Y94_G93D] please
Output line: 0.448

Input line: Do the same for RAILNYIASKF [GSTA3_Y74_YF] please
Output line: 0.994

Input line: Do the same for TDGIAYEFRVT please
Output line: 0.639

====

molecular target: Fyn (UniProt P06241); assay: phosphorylation enrichment, bacterial display (enrichment ratio); higher = better substrate or ligand; peptides without Tyr show the background
Sequence (P06241 whole entry, looked up): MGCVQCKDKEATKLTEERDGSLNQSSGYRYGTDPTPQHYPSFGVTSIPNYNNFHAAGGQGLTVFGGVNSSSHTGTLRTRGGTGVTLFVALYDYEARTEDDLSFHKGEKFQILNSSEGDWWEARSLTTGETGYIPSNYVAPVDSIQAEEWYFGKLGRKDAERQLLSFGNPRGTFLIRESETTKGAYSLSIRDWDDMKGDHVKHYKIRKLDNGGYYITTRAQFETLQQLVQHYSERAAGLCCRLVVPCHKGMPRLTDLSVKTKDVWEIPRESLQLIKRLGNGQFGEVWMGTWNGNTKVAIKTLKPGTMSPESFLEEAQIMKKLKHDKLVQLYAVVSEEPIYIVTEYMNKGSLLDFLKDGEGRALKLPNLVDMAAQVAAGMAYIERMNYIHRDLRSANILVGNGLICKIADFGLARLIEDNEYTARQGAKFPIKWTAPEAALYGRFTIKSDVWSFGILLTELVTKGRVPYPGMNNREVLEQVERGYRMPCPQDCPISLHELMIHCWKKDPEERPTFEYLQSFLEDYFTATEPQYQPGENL
Class yes: phosphorylation enrichment at least 0.5. Class no: phosphorylation enrichment below 0.5.

Worked set:
TISPFYRQSLF [CRYAA_Y48_YF]: no
IEPVIDVVQRR [ANOS1_Y217_Y217D]: no
GVRLYYRVRES [RB1_Y454_M457R]: no
RLSVDYGKKSK [TUBA3E_Y161_S162G]: yes

Input line: Has LSRDVYEEDSF [RET_Y900_YF] a recorded phosphorylation enrichment greater than or equal to 0.5?
Output line: yes

Input line: Do the same for VLTSTYRGGGG [HBA1_Y141_K140T] please
Output line: no

Input line: Do the same for DPYHVYIKNRV [KCNE3_Y95] please
Output line: yes

Input line: Do the same for LFHENYNAGTY [CFI_Y421_I416L] please
Output line: yes

====

biological target: MERTK (UniProt Q12866); assay: phosphorylation enrichment, bacterial display (enrichment ratio); higher = better substrate or ligand; peptides without Tyr show the background
Sequence (Q12866 whole entry, looked up): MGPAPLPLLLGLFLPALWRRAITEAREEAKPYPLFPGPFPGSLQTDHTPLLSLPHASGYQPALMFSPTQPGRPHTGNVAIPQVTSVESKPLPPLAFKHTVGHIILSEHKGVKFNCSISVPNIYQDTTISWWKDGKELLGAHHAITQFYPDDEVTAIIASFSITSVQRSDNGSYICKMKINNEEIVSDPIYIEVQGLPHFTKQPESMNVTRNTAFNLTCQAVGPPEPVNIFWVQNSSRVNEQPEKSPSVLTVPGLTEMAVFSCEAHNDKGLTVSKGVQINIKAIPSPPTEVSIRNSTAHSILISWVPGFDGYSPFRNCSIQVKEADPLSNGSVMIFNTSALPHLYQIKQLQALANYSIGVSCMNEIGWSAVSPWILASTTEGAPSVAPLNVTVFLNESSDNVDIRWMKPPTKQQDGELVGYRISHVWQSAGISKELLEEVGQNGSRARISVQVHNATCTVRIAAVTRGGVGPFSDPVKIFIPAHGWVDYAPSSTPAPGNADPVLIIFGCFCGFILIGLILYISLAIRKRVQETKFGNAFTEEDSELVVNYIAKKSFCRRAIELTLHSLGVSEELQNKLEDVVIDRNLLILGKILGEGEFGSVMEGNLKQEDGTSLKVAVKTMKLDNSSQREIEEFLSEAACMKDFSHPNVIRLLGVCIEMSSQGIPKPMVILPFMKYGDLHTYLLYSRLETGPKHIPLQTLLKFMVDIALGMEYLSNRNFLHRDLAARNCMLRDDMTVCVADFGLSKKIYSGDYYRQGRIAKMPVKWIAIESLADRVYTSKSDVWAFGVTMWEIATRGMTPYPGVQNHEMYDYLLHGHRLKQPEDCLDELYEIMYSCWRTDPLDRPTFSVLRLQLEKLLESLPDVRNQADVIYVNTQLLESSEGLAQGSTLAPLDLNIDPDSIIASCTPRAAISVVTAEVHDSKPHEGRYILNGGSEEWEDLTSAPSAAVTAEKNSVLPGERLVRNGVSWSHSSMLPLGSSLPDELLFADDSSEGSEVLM
The following sequences are listed with their measured phosphorylation enrichment values.
Lab note: jot the number down without any unit.

PYVYYYSYLLK [PTEN_Y178_R173P]: 5.9
TFWKKYRTFWK [CCDC70_Y125]: 0.446
CTTIHYNYMCN [TP53_Y234]: 0.485
AAAAVYTFLPD [MYORG_Y36_M35V]: 9.47
VDHFGYNKDDK [APOB_Y740_T741N]: 0.434

Input line: phosphorylation enrichment for CTTIHYNFMSN [TP53_Y234_C238S_YF] ?
Output line: 0.527

Input line: Do the same for FGSSSSGGAGG [RPA2_Y14_Y14S_YF] please
Output line: 0.394

Input line: Do the same for IKKLIYVFLVI [JAGN1_Y42_H44Y_YF] please
Output line: 0.547

Input line: Do the same for CTTIHYNFMCH [TP53_Y234_N239H_YF] please
Output line: 0.444

Input line: Do the same for ITSLLYHVVGW [GBA_Y412_N409S] please
Output line: 7.37

Input line: Do the same for GAVGNYSRGLA [MGMT_Y158_G160R] please
Output line: 0.353

Input line: Do the same for EIRTQYEAMAS [GFAP_Y242] please
Output line: 0.415

Input line: Do the same for SVVVRYEPPEV [TP53_Y220_P219R] please
Output line: 0.425

Input line: Do the same for GIADDYDKKKL [EIF1_Y54] please
Output line: 0.383
